study system: 5-LO (Homo sapiens, UniProt P09917)
Sequence (P09917 1-674): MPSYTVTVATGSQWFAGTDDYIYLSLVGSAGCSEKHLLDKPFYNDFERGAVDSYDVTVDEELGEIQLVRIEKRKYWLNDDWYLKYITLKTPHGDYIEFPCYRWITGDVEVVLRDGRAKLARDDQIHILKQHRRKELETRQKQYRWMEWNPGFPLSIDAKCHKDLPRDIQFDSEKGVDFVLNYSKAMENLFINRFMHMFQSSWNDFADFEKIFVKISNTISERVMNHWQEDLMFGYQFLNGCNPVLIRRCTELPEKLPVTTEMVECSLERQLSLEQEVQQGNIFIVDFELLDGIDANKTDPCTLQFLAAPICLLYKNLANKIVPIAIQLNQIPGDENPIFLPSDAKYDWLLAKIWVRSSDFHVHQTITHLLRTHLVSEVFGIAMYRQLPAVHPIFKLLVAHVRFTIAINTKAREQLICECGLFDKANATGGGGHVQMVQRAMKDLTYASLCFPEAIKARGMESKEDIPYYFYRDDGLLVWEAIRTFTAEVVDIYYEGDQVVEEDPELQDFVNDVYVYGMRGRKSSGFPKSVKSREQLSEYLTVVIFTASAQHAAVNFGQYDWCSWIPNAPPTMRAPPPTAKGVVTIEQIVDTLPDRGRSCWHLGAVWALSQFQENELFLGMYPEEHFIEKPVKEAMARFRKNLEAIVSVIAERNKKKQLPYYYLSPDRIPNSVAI
measurement protocol: 5-LO product formation in intact human neutrophils stimulated with A23187 plus arachidonic acid
test conditions: IC50, intact human neutrophils supplemented with 1 mM DTT; n = 4
property name: pIC50
Just so you know, pIC50 here is -log10 of the concentration in molar units; reply with that number alone.

State the recorded pIC50 for this entry: CC1(C)CCC2=C(O1)c1ccccc1C(=O)C2=O [β-Lapachone]
6.38

====

study system: 5-LO (Homo sapiens)
Sequence (P09917 1-674): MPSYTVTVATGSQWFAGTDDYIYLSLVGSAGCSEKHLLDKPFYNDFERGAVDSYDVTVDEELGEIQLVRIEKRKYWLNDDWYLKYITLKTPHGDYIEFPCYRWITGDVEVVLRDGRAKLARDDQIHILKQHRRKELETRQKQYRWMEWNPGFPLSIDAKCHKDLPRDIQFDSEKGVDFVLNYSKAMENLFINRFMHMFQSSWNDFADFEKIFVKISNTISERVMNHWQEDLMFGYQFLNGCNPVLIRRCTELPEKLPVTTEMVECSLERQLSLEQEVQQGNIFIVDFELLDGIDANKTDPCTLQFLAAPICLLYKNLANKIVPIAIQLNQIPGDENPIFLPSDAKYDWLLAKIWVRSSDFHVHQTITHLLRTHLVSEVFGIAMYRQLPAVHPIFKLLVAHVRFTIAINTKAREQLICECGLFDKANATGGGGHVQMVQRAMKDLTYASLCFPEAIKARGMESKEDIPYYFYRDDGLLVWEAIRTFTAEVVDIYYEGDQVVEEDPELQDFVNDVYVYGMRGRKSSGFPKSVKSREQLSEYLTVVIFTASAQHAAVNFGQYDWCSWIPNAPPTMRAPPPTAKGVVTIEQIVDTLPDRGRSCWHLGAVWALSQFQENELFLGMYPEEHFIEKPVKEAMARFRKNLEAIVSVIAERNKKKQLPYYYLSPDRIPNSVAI
measurement protocol: 5-LO inhibition assay, Cerep (Method A, indirect fluorogenic readout, Rhodamine 123)
Assay type: biochemical
test conditions: 5-LO; 5 µM; read-out: % inhibition of control values, 2nd measure
property name: inhibition at 5 µM (%)
Give the number; % is assumed, so skip it.

CC1(C)CCC2=C(O1)c1ccccc1C(=O)C2=O [β-Lapachone]    99.8
CC1(C)OC2=C(CC1O)C(=O)C(=O)c1ccccc12 (centres unmarked) [Compound 5]    35.5
CC1(C)OC2=C(C(=O)C(=O)c3ccccc32)C1Nc1ccc(C(=O)/C=C/c2ccccc2)cc1 (centres unmarked) [Compound 6]    58.1
CC(=O)OCC1OC(OCc2cn(CC3C4=C(OC3(C)C)c3ccccc3C(=O)C4=O)nn2)C(OC(C)=O)C(OC(C)=O)C1OC(C)=O (centres unmarked) [Compound 7]    76.9
CC1(C)OC2=C(C(=O)C(=O)c3ccccc32)C1Nc1ccc(Cl)cc1 (centres unmarked) [Compound 3]    29

State the recorded inhibition at 5 µM for this entry: CC1(C)OC2=C(C(=O)C(=O)c3ccccc32)C1Nc1ccccc1 (centres unmarked) [Compound 2]
22.2

State the recorded inhibition at 5 µM for this entry: CC1(C)OC2=C(C(=O)C(=O)c3ccccc32)C1O (centres unmarked) [Compound 4]
68.2

State the recorded inhibition at 5 µM for this entry: CC(=O)OCC1OC(OCc2cn(C3C4=C(OC3(C)C)c3ccccc3C(=O)C4=O)nn2)C(OC(C)=O)C(OC(C)=O)C1OC(C)=O (centres unmarked) [Compound 8]
64.8
